Every entry's value here was drawn from PubChem BioAssay (NCI).

List of TGI values.
tested on: PC-3 prostate; assay: NCI tumour cell line growth inhibition, 48 h
measuredEndpoint: TGI

> print(dat)
                                   compound  reportedmeasurement
1                C#Cc1cccc(N2C(=O)CCC2=O)c1              28.6 µM
2  COc1ccc2c(c1)C(=O)c1c-2n(CCCN=[N+]=[N-])c(=O)c2cc(OC)c(OC)cc12             > 100 µM
3  O=S(=O)(c1ccccc1)n1c2ccc(Br)cc2c2nc3ccccc3nc21             > 100 µM
4           COc1ccc2c(CCN)c(C(=O)O)[nH]c2c1             > 100 µM
5   Cc1sc2nc(-c3ccncc3)c(/C=N/N=C(N)N)n2c1C             > 100 µM
6  O=C(NCCC1([N+](=O)[O-])CCN(C(=O)c2ccccc2)CC1)c1ccccc1             > 100 µM
7  CCCNNC(=O)/C=C/c1ccc(CNCCc2c(C)[nH]c3ccccc23)cc1              3.74 µM
8  OC(c1cc2ccccc2o1)c1cc2ccccc2s1 (stereo not drawn)              > 10 µM
